Assay: qHTS assay to identify small molecule inhibitors of chordoma cells - UCH-1 (AID 1259355); further: nearly all actives have a fitted effect of over 55% in size
Details: UCH-1 chordoma viability, CellTiter-Glo, 48 h, combination, with auranofin plus four topoisomerase inhibitors; series mostly up to 46.1 µM
Text: NIH Chemical Genomics Center [NCGC] Chordoma is a rare and slow growing tumor that can occur anywhere along the spine, from the base of the skull to the tailbone. Current treatment options for chordoma is surgery and radiation therapy for those who are not candidates for surgery. But chordomas tend to return in the same location or surrounding areas of the original tumor after surgery and/or radiation. Chemotherapy can slow down the progression of the tumor. […]
Results filed as inconclusive are left out. The source made the active and inactive calls. The call rests on the fitted dose curve; in most records, active means well fitted cell-killing curve with a large enough effect; inconclusive means small, poorly fitted or top-dose-only effect, or effect the other way; inactive means no such curve, though single readings can be large or run the other way.
RECORDED ENDPOINT: outcome

Would you mind telling me what outcome value was observed for `COc1ccc([C@@H]2Sc3ccccc3N(CCN(C)C)C(=O)[C@@H]2OC(C)=O)cc1` ? inactive

Would you mind telling me what outcome value was observed for `c1cc(CN2CCCCC2)cc(OCCCNc2nc3ccccc3s2)c1` ? inactive

Would you mind telling me what outcome value was observed for `NC(=O)c1cn(Cc2c(F)cccc2F)nn1` ? inactive

Would you mind telling me what outcome value was observed for Nc1c2c(nc3ccccc13)CCCC2O (centres undefined) ? inactive
